test-protocol: qHTS assay to identify small molecule antagonists of the thyroid receptor (TR) signaling pathway (AID 743065); note: nearly all actives have a fitted effect of over 55% in size
details: GH3.TRE-Luc, T3-stimulated luciferase inhibition, 23.5 h; series mostly up to 70.3 µM
Results filed as inconclusive are left out. Activity calls are given as the source filed them. Calls come from the whole dose curve; as a rule, active = well fitted inhibition curve with a large enough effect in the repeat runs; inconclusive = weak or mixed curves; inactive = no such curve, though single readings can be large or run the other way.
Permitted responses: 1 (active), -1 (inactive)

(Q) Would you mind telling me which call this test gave CN1CCCC(n2nc(Cc3ccc(Cl)cc3)c3ccccc3c2=O)CC1 (configuration not stated) ?
(A) 1

(Q) Short answer needed: outcome of this test for `CN1C[C@H](C(=O)N[C@]2(C)O[C@@]3(O)[C@@H]4CCCN4C(=O)[C@H](Cc4ccccc4)N3C2=O)C[C@@H]2c3cccc4[nH]cc(c34)C[C@H]21` ?
(A) 1

(Q) What classification did `C[C@@H]1CN(CCCn2c3ccccc3c3ccccc32)C[C@H](C)N1` end up with in this test?
(A) 1

(Q) Look up the recorded call for `CC(=O)Nc1cc(S(=O)(=O)O)cc2cc(S(=O)(=O)O)c(N=Nc3ccccc3)c(O)c12` in this test.
(A) -1

(Q) For `C[C@@H](CN(C)C)CN1c2ccccc2Sc2ccccc21` , which call appears in the assay record?
(A) 1

(Q) For CC1(C)S[C@@H]2[C@H](NC(=O)C(c3ccccc3)S(=O)(=O)O)C(=O)N2[C@H]1C(=O)O (some centres not stated) , which call appears in the assay record?
(A) -1

====

assay-system: Thyrotropin-releasing hormone receptor (Homo sapiens) (UniProt P34981)
Sequence (P34981 whole entry, looked up): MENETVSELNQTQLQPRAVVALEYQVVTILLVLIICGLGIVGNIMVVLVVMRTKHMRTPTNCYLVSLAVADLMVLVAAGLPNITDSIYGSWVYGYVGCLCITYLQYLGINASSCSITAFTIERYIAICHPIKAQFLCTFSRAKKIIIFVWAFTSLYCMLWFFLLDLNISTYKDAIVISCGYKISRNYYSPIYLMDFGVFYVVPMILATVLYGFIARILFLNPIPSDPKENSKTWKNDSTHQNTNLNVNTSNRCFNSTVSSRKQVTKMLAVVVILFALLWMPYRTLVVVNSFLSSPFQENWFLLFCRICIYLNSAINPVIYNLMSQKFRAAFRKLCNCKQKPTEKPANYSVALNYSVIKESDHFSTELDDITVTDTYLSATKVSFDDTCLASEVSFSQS
test-protocol: qHTS assay to identify small molecule antagonists of the thyrotropin-releasing hormone receptor (TRHR) signaling pathway (AID 1346877)
details: TRHR-HEK293, TRH-induced calcium fluorescence, antagonist mode; series mostly up to 51.3 µM
Calls of active or inactive are those of the source. Calls come from the whole dose curve; as a rule, active = well fitted inhibition curve with a large enough effect in the repeat runs (not every such curve was filed as active); inconclusive = weak or mixed curves; inactive = flat fitted curve, though single readings scatter.
test-readout: activity, negative = inhibition

COc1ncnc(NS(=O)(=O)c2ccc(N)cc2)c1OC	inactive
C=C1c2cccc(O)c2C(O)=C2C(=O)[C@]3(O)C(O)=C(C(N)=O)C(=O)[C@@H](N(C)C)[C@@H]3[C@@H](O)[C@H]12	inactive
CCC1NC(=O)c2cc(S(N)(=O)=O)c(Cl)cc2N1 (configuration not stated)	inactive
CC1CC(OC(=O)C(O)c2ccccc2)CC(C)(C)N1C (configuration not stated)	inactive
C[C@H]1C[C@H](O)c2ccsc2S1(=O)=O	inactive
N#CCc1ccc(Cl)cc1Cl	inactive

(Q) Given the entry `Nc1ncnc2c1ncn2[C@H]1CC[C@@H](CO)O1` , report its measured activity, negative = inhibition.
(A) inactive

(Q) Tell me the measured activity, negative = inhibition of CC1CC(C)C(=O)C1=O (configuration not stated) , please.
(A) inactive

(Q) What value of measured activity, negative = inhibition is listed for CCC(C)COC(=O)CC(C)C (configuration not stated) ?
(A) inactive

====

test-protocol: qHTS assay for identifying genotoxic compounds that show differential cytotoxicity against isogenic chicken DT40 cell lines with known DNA damage response pathways - Rev3 mutant cell line (AID 743014); note: nearly all actives have a fitted effect of over 55% in size
details: chicken DT40 Rev3-/- viability, CellTiter-Glo, 40 h; series mostly up to 68.4 µM
Records with an inconclusive call do not appear. Active and inactive are the calls of the source. Calls come from the whole dose curve; as a rule, active = well fitted cell-killing curve with a large enough effect in the repeat runs; inconclusive = weak or mixed curves, or effect the other way; inactive = no such curve, though single readings can be large or run the other way.
Response enum: active, inactive

CC(=O)NC1(c2cccc(F)c2)CCN(CC[C@@]2(c3ccc(Cl)c(Cl)c3)CN(c3ccccc3)C(=O)CO2)CC1	active
NNC(=O)CP(=O)(c1ccccc1)c1ccccc1	inactive
O[C@@H]1CO[C@H]2[C@@H]1OC[C@@H]2O	inactive

(Q) Identify the outcome logged in this assay for the compound shown: `CN1C(=O)c2ccccc2C1=O`
(A) active

Source listed as PubChem BioAssay (Tox21).
